These entries and their values trace back to BindingDB's records for patent US20250115591.

# targetOrSystem: NACHT, LRR and PYD domains-containing protein 3 (Homo sapiens)
# Sequence (Q96P20 whole entry, the tested form may be a part): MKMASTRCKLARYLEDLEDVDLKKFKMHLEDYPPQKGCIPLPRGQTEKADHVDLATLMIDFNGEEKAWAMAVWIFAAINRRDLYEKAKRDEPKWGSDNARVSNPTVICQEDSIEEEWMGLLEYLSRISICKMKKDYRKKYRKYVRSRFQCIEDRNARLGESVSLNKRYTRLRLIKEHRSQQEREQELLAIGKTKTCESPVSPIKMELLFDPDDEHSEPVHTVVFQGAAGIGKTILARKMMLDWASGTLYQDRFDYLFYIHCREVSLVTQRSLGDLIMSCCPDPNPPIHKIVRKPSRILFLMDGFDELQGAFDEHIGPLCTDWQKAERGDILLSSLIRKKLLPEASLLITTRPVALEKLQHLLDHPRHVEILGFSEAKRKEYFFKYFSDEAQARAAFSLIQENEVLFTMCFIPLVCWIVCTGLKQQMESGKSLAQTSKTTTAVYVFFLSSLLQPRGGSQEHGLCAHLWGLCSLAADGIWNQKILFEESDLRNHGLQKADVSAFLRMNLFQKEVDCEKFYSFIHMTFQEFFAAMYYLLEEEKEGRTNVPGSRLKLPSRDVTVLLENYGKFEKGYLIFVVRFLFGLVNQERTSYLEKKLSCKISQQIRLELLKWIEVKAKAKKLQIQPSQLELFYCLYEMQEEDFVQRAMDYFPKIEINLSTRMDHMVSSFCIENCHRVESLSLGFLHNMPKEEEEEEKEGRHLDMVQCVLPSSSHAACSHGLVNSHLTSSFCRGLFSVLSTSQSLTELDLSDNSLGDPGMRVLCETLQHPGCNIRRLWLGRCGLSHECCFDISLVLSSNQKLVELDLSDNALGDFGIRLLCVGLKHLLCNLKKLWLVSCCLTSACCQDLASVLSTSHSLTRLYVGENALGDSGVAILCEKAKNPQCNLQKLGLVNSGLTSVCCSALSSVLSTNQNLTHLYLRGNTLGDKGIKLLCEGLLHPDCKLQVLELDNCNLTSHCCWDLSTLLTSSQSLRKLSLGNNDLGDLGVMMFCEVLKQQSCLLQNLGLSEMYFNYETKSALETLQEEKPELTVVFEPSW
Listing of entries alongside the reported IC50.

Solved entries (count: 3):
INSERT INTO assay_data (compound, measuredattribute, experimentalresult) VALUES
  ('CC(C)(C)N1CC(S(=O)(=O)NC(=O)Nc2c3c(cc4c2CCC4)CCC3)C1 [US20250115591, Example 93]', 'IC50', '< 1000 nM'),
  ('CCN1[C@@H]2CC[C@H]1C[C@H](S(=O)(=O)NC(=O)Nc1c3c(cc4c1CCC4)CCC3)C2 [US20250115591, Example 70]', 'IC50', '< 1000 nM'),
  ('CC(C)N1[C@@H]2CC[C@H]1C[C@@H](S(=O)(=O)NC(=O)Nc1c3c(cc4c1CCC4)CCC3)C2 [US20250115591, Example 45]', 'IC50', '< 1000 nM');

Next up:
Any idea what IC50 came out for CN(C)C(=O)CN1CC(S(=O)(=O)NC(=O)Nc2c3c(cc4c2CCC4)CCC3)C1 [US20250115591, Example 21] on NACHT, LRR and PYD domains-containing protein 3 (Homo sapiens)?
< 10000 nM
